- System: KRAS patient-derived spheroids with HUVEC/MSC, viability;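 further: spheroids exposed to agents for 7 days; 100% = DMSO vehicle control viability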
- Experimental details: Anticancer human tumor 323965-272-R-J2-PDC patient-derived pancreatic carcinoma cell line growth inhibition [KRAS2]
- Condition info: second compound 3.16 µM; first compound 3.16 µM; stronger effect = lower value
Assay metric: viability, T/C (%)
Give bare numbers, in %.

These solved cases illustrate the format of a correct answer.
Entry COc1cc2nccc(Oc3ccc(NC(=O)C4(C(=O)Nc5ccc(F)cc5)CC4)cc3)c2cc1OC + C=CC(=O)N1CCN(c2nc(=O)n(-c3c(C)ccnc3C(C)C)c3nc(-c4c(O)cccc4F)c(F)cc23)C(C)C1 : reported viability, T/C = ? 58.6

CC(=O)OC12COC1CC(O)C1(C)C(=O)C(O)C3=C(C)C(OC(=O)C(O)C(NC(=O)OC(C)(C)C)c4ccccc4)CC(O)(C(OC(=O)c4ccccc4)C21)C3(C)C (stereo not given) + C=CC(=O)N1CCN(c2nc(OCC3CCCN3C)nc3c2CCN(c2cccc4cccc(C)c24)C3)CC1CC#N ? 31.2

CC(=O)OC12COC1CC(O)C1(C)C(=O)C(O)C3=C(C)C(OC(=O)C(O)C(NC(=O)OC(C)(C)C)c4ccccc4)CC(O)(C(OC(=O)c4ccccc4)C21)C3(C)C (stereo not given) + C=CC(=O)N1CCN(c2nc(=O)n(-c3c(C)ccnc3C(C)C)c3nc(-c4c(O)cccc4F)c(F)cc23)C(C)C1 ? 18.5

Items follow; give viability, T/C for each.
1. CC(C)NCC(C(=O)N1CCN(c2ncnc3c2C(C)CC3O)CC1)c1ccc(Cl)cc1 (stereo not given) + C=CC(=O)N1CCN(c2nc(OCC3CCCN3C)nc3c2CCN(c2cccc4cccc(C)c24)C3)CC1CC#N
2. COC(=O)c1ccc2c(C(=Nc3ccc(N(C)C(=O)CN4CCN(C)CC4)cc3)c3ccccc3)c(O)[nH]c2c1 + CNCc1ccccc1-c1csc(C(C)Nc2nc(C)nc3cc(OC)c(OC)cc23)c1
3. CC(C)NCC(C(=O)N1CCN(c2ncnc3c2C(C)CC3O)CC1)c1ccc(Cl)cc1 (stereo not given) + C=CC(=O)N1CCN(c2nc(=O)n(-c3c(C)ccnc3C(C)C)c3nc(-c4c(O)cccc4F)c(F)cc23)C(C)C1
4. CC1(C)CCC(CN2CCN(c3ccc(C(=O)NS(=O)(=O)c4ccc(NCC5CCOCC5)c([N+](=O)[O-])c4)c(Oc4cnc5[nH]ccc5c4)c3)CC2)=C(c2ccc(Cl)cc2)C1 + COc1cc2nc(C)nc(NC(C)c3cc(N)cc(C(F)(F)F)c3)c2cc1OC1CCOC1
5. CC1COCCN1c1cc(-c2ccnn2C)c2ccnc(-c3ccn[nH]3)c2n1 (stereo not given) + CC1OCC2(CCN(c3cnc(Sc4ccnc(N)c4Cl)c(N)n3)CC2)C1N
6. CC1OCC2(CCN(c3cnc(Sc4ccnc(N)c4Cl)c(N)n3)CC2)C1N (stereo not given) + C=CC(=O)N1CCN(c2nc(OCC3CCCN3C)nc3c2CCN(c2cccc4cccc(C)c24)C3)CC1CC#N

1: 3.02; 2: 90; 3: 26.9; 4: 6.04; 5: 2.21; 6: 1.07

Entry CC1COCCN1c1cc(-c2ccnn2C)c2ccnc(-c3ccn[nH]3)c2n1 (stereo not given) + C=CC(=O)N1CCN(c2nc(OCC3CCCN3C)nc3c2CCN(c2cccc4cccc(C)c24)C3)CC1CC#N : reported viability, T/C = ? 2.61

Data origin: PubChem BioAssay AID1963869
